Listing of recorded zone of inhibition at 3.9 µg/mL by entry.
- Test system: Fusarium oxysporum
- Assay name: Antifungal activity, agar well diffusion method
- Type: cell-based
- Recorded conditions: Fusarium oxysporum; 0.0039 mg/mL; zones st (static growth); read-out: Diameter of inhibition zone
Write down the numeric answer in mm and omit the unit.

These recorded examples may help you get a feel for the data.
# Compound, zone of inhibition at 3.9 µg/mL [mm]
records = [
    ("Cn1cc(C(=O)N[C@@H]2[C@@H]3CC[C@@]2(c2cc(F)c(F)c(F)c2)C3)c(C(F)F)n1 (relative stereo) [Compound 28]", 20),
    ("O=C(N[C@@H]1[C@@H]2CC[C@@]1(c1ccc(Cl)cc1)C2)c1cccnc1Cl (relative stereo) [Compound 30]", 16),
    ("O=C(N[C@@H]1[C@H]2C[C@]1(c1ccc(Cl)cc1)CO2)c1cccnc1Cl (relative stereo) [Compound 31]", 8),
]

Now for another entry.
Requested field: zone of inhibition at 3.9 µg/mL. Item: Cn1cc(C(=O)N[C@@H]2[C@H]3C[C@]2(c2cc(F)c(F)c(F)c2)CO3)c(C(F)F)n1 (relative stereo) [Compound 29] 9

----------
- Tested on: Fusarium verticillioides
- Assay name: Antifungal activity, agar well diffusion method
- Format: cell-based
- Recorded conditions: Fusarium verticillioides; 0.0156 mg/mL; 0 = absence of antifungal activity; read-out: Diameter of inhibition zone
Assay endpoint: zone of inhibition at 15.6 µg/mL (mm)
Number in mm, nothing else.

Completed entries (count: 3):
# Compound, zone of inhibition at 15.6 µg/mL [mm]
measured = [
    ("O=C(N[C@@H]1[C@@H]2CC[C@@]1(c1ccc(Cl)cc1)C2)c1cccnc1Cl (relative stereo) [Compound 30]", 25),
    ("O=C(N[C@@H]1[C@H]2C[C@]1(c1ccc(Cl)cc1)CO2)c1cccnc1Cl (relative stereo) [Compound 31]", 0),
    ("Cn1cc(C(=O)N[C@@H]2[C@H]3C[C@]2(c2cc(F)c(F)c(F)c2)CO3)c(C(F)F)n1 (relative stereo) [Compound 29]", 15),
]

zone of inhibition at 15.6 µg/mL lookup needed for Cn1cc(C(=O)N[C@@H]2[C@@H]3CC[C@@]2(c2cc(F)c(F)c(F)c2)C3)c(C(F)F)n1 (relative stereo) [Compound 28] , thanks. 41

----------
- Assay name: Metabolic stability in human liver microsomes
- Format: in vitro ADME
- Recorded conditions: both sexes, human, liver microsomes, pH 7.4, human liver microsomes, 2 μM, 37 °C, with NADPH; 40 min; read-out: % Remaining, Mean of 2
The entries below come with measured remaining at 40 min, 2 µM values attached.
Reply with a number, then the unit it belongs to.

So what does the record say about remaining at 40 min, 2 µM for O=C(NC1CCN(CCCCC2(C(=O)NCC(F)(F)F)c3ccccc3-c3ccccc32)CC1)[C@@H]1[C@@H]2CC[C@@]1(c1ccc(C(F)(F)F)cc1)C2 (relative stereo) ? 8%

For Cn1cc(C(=O)N[C@@H]2[C@H]3C[C@]2(c2cc(F)c(F)c(F)c2)CO3)c(C(F)F)n1 (relative stereo) then? 72%

Item: O=C(NC1CCN(CCCCC2(C(=O)NCC(F)(F)F)c3ccccc3-c3ccccc32)CC1)c1ccccc1-c1ccc(C(F)(F)F)cc1 [Lomitapide, reference compound] 46%

Moving on to the next compound: O=C(N[C@@H]1[C@H]2C[C@]1(c1ccc(Cl)cc1)CO2)c1cccnc1Cl (relative stereo) 108%

Cn1cc(C(=O)N[C@@H]2[C@@H]3CC[C@@]2(c2cc(F)c(F)c(F)c2)C3)c(C(F)F)n1 (relative stereo) , same question. 55%

// same read-out, input: O=C(O)c1ccccc1C(=O)Nc1ccc(S(=O)(=O)Nc2nccs2)cc1 [Phthalylsulfathiazole, reference compound] 96%

Item: O=C(O)[C@@H]1[C@@H]2CC[C@@]1(C(=O)Nc1ccc(S(=O)(=O)Nc3nccs3)cc1)C2 (relative stereo) 100%

Repeat for the following compound: O=C(N[C@@H]1[C@@H]2CC[C@@]1(c1ccc(Cl)cc1)C2)c1cccnc1Cl (relative stereo) 80%

One more compound: O=C(O)C1C2CC1(C(=O)Nc1ccc(S(=O)(=O)Nc3nccs3)cc1)CO2 (stereo not shown) 106%

Would you mind doing O=C(NC1CCN(CCCCC2(C(=O)NCC(F)(F)F)c3ccccc3-c3ccccc32)CC1)[C@@H]1[C@H]2C[C@]1(c1ccc(C(F)(F)F)cc1)CO2 (relative stereo) as well? 29%

----------
solubility at 2 h for assorted compounds
- Assay name: Kinetic solubility in phosphate-buffered saline, pH 7.4
- Format: physicochemical
- Recorded conditions: phosphate-buffered saline, 25 °C, pH 7.4, aqueous buffer, kinetic from dmso stock, Table S1; incubation 1; read-out: PBS solubility, pH 7.4, Incubation 1
# output: bare number, implied unit µM

Would you please look over these solved cases?
# Compound, solubility at 2 h (µM)
rows = [
    ("O=C(NC1CCN(CCCCC2(C(=O)NCC(F)(F)F)c3ccccc3-c3ccccc32)CC1)c1ccccc1-c1ccc(C(F)(F)F)cc1 [Lomitapide, reference compound]", 3),
    ("O=C(O)c1ccccc1C(=O)Nc1ccc(S(=O)(=O)Nc2nccs2)cc1 [Phthalylsulfathiazole, reference compound]", 169),
    ("O=C(O)C1C2CC1(C(=O)Nc1ccc(S(=O)(=O)Nc3nccs3)cc1)CO2 (stereo not shown)", 100),
]

Form field: reported solubility at 2 h of Cn1cc(C(=O)N[C@@H]2[C@H]3C[C@]2(c2cc(F)c(F)c(F)c2)CO3)c(C(F)F)n1 (relative stereo) 151

Request: O=C(N[C@@H]1[C@H]2C[C@]1(c1ccc(Cl)cc1)CO2)c1cccnc1Cl (relative stereo) 148

Same again, this time with O=C(N[C@@H]1[C@@H]2CC[C@@]1(c1ccc(Cl)cc1)C2)c1cccnc1Cl (relative stereo) 17

Another compound to check: O=C(O)[C@@H]1[C@@H]2CC[C@@]1(C(=O)Nc1ccc(S(=O)(=O)Nc3nccs3)cc1)C2 (relative stereo) 151

----------
- Test system: human liver microsomes
- Assay name: Metabolic stability in human liver microsomes
- Assay type: in vitro ADME
- Recorded conditions: human liver microsomes
Listing of entries alongside the reported CIint, intrinsic clearance.
Could you give me the number in µL/min/mg? Just the number is fine.

Solved entries (count: 2):
# Compound, Assay endpoint, Reported measurement
measured = [
    ("Cn1cc(C(=O)N[C@@H]2[C@@H]3CC[C@@]2(c2cc(F)c(F)c(F)c2)C3)c(C(F)F)n1 (relative stereo) [Compound 28]", "CIint, intrinsic clearance", 35),
    ("O=C(N[C@@H]1[C@H]2C[C@]1(c1ccc(Cl)cc1)CO2)c1cccnc1Cl (relative stereo) [Compound 31]", "CIint, intrinsic clearance", 3),
]

I am curious: what CIint, intrinsic clearance value has been reported for O=C(NC1CCN(CCCCC2(C(=O)NCC(F)(F)F)c3ccccc3-c3ccccc32)CC1)[C@@H]1[C@@H]2CC[C@@]1(c1ccc(C(F)(F)F)cc1)C2 (relative stereo) [Compound 34] ? 157

----------
- Assay name: physchem
- Format: physicochemical
- Recorded conditions: Table S2; n-octanol/PBS pH 7.4; incubation 3
Assay endpoint: D (partition ratio), incubation 3
Please give the numeric answer without any surrounding text.

Take a look at these entries with their results.
# Compound, Assay endpoint, Reported measurement
data = [
    ("COC(=O)Nc1nc2ccc(C(=O)c3ccccc3)cc2[nH]1 [Mebendazole, reference compound]", "D (partition ratio), incubation 3", "1.33E+03"),
    ("O=C(O)C1C2CC1(C(=O)Nc1ccc(S(=O)(=O)Nc3nccs3)cc1)CO2 (stereo not shown)", "D (partition ratio), incubation 3", "5.50E-01"),
]

Look up D (partition ratio), incubation 3: O=C(Nc1ccccc1-c1ccc(Cl)cc1)c1cccnc1Cl [Boscalid, reference compound] 4.07E+03

// query: Cn1cc(C(=O)Nc2ccccc2-c2cc(F)c(F)c(F)c2)c(C(F)F)n1 [Fluxapyroxad, reference compound] 3.24E+03

----------
- Assay name: physchem
- Assay type: physicochemical
- Recorded conditions: Table S2; n-octanol/PBS pH 7.4; incubation 2
D (partition ratio), incubation 2 reference

Worked examples follow.
# Compound, D (partition ratio), incubation 2
rows = [
    ("Cn1cc(C(=O)N[C@@H]2[C@@H]3CC[C@@]2(c2cc(F)c(F)c(F)c2)C3)c(C(F)F)n1 (relative stereo) [Compound 28]", "2.00E+04"),
    ("O=C(Nc1ccccc1-c1ccc(Cl)cc1)c1cccnc1Cl [Boscalid, reference compound]", "2.86E+03"),
]

Next compound, please.
Give the measured D (partition ratio), incubation 2 of Cn1cc(C(=O)Nc2ccccc2-c2cc(F)c(F)c(F)c2)c(C(F)F)n1 [Fluxapyroxad, reference compound] . 2.99E+03

----------
- Assay name: physchem
- Format: physicochemical
- Recorded conditions: pH 7.4, logD (7.4)
Listed compounds paired with reported logD at 1 h

Reference set (2 entries):
# Compound, Assay endpoint, Reported measurement
measured = [
    ("O=C(O)c1ccccc1C(=O)Nc1ccc(S(=O)(=O)Nc2nccs2)cc1 [Phthalylsulfathiazole, reference compound]", "logD at 1 h", "< 1"),
    ("O=C(NC1CCN(CCCCC2(C(=O)NCC(F)(F)F)c3ccccc3-c3ccccc32)CC1)[C@@H]1[C@@H]2CC[C@@]1(c1ccc(C(F)(F)F)cc1)C2 (relative stereo)", "logD at 1 h", "> 4.5"),
]

Need logD at 1 h of O=C(O)C1C2CC1(C(=O)Nc1ccc(S(=O)(=O)Nc3nccs3)cc1)CO2 (stereo not drawn) , thanks. < 1
